- Study Target: GMPPNP-loaded H-Ras or GTP-loaded K-Ras
- Protocol Notes: FP competition, displacement of probe R4007 from Ras
pIC50: −log10 of the molar value. *1 amine or outer side, *2 acyl side, *3 side chain or, on linkers, in order; H or OH if unused. Bridges are numbered along the chain shown (N, C = ends). Where no end group is shown, it is not given here. [ ]: non-standard residue; d: D form. TDSPA = (R)-2-amino-3-(tert-butyldisulfanyl)propanoic acid, CC(C)(C)SSC[C@H](N[*:1])C(=O)[*:2]; m‑xylylene = m-xylylene thioether bridge between Cys; Trp(7-aza) = N[C@@H](Cc1c[nH]c2ncccc12)C(=O)O; NMePhe(4-F) = CN[C@@H](Cc1ccc(F)cc1)C(=O)O; mXylylene = c1cc(C[*:1])cc(C[*:2])c1; Phg = N[C@H](C(=O)O)c1ccccc1; Tle = CC(C)(C)[C@H](N)C(=O)O; NMeA = CN[C@@H](C)C(=O)O; Pra = C#CC[C@H](N)C(=O)O; Nva = CCC[C@H](N)C(=O)O; Sar = CNCC(=O)O
Each item that follows carries a reported pIC50.

Binder: cyclo(Y[Tle]KH[NMeA][Phg][Trp(7-aza)]Y[NMePhe(4-F)][Sar][Pra]) (SMILES C#CC[C@@H]1NC(=O)CN(C)C(=O)[C@H](Cc2ccc(F)cc2)N(C)C(=O)[C@H](Cc2ccc(O)cc2)NC(=O)[C@H](Cc2c[nH]c3ncccc23)NC(=O)[C@H](c2ccccc2)NC(=O)[C@H](C)N(C)C(=O)[C@H](Cc2c[nH]cn2)NC(=O)[C@H](CCCCN)NC(=O)[C@H](C(C)(C)C)NC(=O)[C@H](Cc2ccc(O)cc2)NC1=O) [R4145]
pIC50: 5.55
--
Binder: {Alexa Fluor 594}-[Nva]CY[Nva][Phg][NMePhe(4-F)]TP[Trp(7-aza)]C[Trp(7-aza)]EE-NH2 (linker 2-10 via m‑xylylene) [R4154]
pIC50: 4.43
--
Binder: Ac-[Nva]CY[Tle]KH[NMeA][Phg][Trp(7-aza)]Y[NMePhe(4-F)][Sar]C[dS]KG[TDSPA]VIM (linker 2-13 via mXylylene) [R4109]
pIC50: 7.85
